The following molecules are shown together with reported remaining at 1 h, 100 µM values.
# assay_system: Chymotrypsin-like elastase family member 1 (Sus scrofa, UniProt P00772)
# Sequence (P00772 whole entry): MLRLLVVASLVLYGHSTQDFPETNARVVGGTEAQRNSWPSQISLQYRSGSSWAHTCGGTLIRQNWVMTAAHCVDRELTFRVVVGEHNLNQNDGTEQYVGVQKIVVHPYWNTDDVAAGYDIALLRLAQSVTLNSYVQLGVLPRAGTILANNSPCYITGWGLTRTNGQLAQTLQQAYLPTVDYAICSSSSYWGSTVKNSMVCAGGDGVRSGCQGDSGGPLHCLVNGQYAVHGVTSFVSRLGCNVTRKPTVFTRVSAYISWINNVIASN
# run_description: Enzymatic stability assessed as porcine type 4 pancreatic elastase-mediated compound hydrolysis by measuring parent compound remaining at 100 uM incubated for 1 hr by LC-MS/MS analysis
# Type: ADME
# condition_summary: pig, read-out: Stabilty
Numbered stars: 1 amine (or outer) side, 2 acyl side, 3 side chain; on linkers, the order of the positions; unused ones are H or OH. Bridge positions count the residues as written; N and C are the ends. Square brackets hold non-standard residues; d marks the D form. Peptide text beside a SMILES is read from it. Trp(5-F) = N[C@@H](Cc1c[nH]c2ccc(F)cc12)C(=O)O; mXylylene = c1cc(C[*:1])cc(C[*:2])c1; Mpa = O=C(O)CCS
Report as: number unit

molecule | remaining at 1 h, 100 µM
NCCCC[C@@H]1NC(=O)CCSCc2cccc(c2)CSC[C@@H](C(N)=O)NC(=O)[C@@H]2CCCN2C(=O)[C@H](Cc2ccc(O)cc2)NC(=O)[C@H](Cc2c[nH]cn2)NC(=O)[C@H](CC(=O)O)NC(=O)[C@H](Cc2c[nH]c3ccc(F)cc23)NC(=O)[C@H](Cc2c[nH]c3ccc(F)cc23)NC(=O)CNC1=O | 60.7%

QUERY: // remaining at 1 h, 100 µM lookup, key: COc1ccc(C[C@@H]2NC(=O)[C@H]([C@@H](C)O)NC(=O)[C@@H]3CCCN3C(=O)[C@@H]3Cc4cn(c5ccc(F)cc45)Cc4cn(nn4)-c4cc(cc(c4)CSCCC(=O)N[C@@H](C)C(=O)N[C@H](C)C(=O)N[C@@H](Cc4c[nH]c5ccc(F)cc45)C(=O)N3)CSCCNC(=O)[C@]3(C)CCCN3C2=O)cc1
RESULT: 96.6%

QUERY: // remaining at 1 h, 100 µM lookup, key: C[C@@H]1NC(=O)CCSCc2cccc(c2)CSC[C@@H](C(N)=O)NC(=O)[C@@H]2CCCN2C(=O)[C@H](Cc2ccc(O)cc2)NC(=O)[C@H](Cc2cnc[nH]2)NC(=O)[C@H](CC(=O)O)NC(=O)[C@H](Cc2c[nH]c3ccc(F)cc23)NC(=O)[C@H](Cc2c[nH]c3ccc(F)cc23)NC(=O)CNC1=O ([Mpa]AG[Trp(5-F)][Trp(5-F)]DHYPC-NH2; linker 1-10 via mXylylene)
RESULT: 54.9%

----------
# run_description: Half life in C57BL/6 mouse at 1 mg/kg, iv by LC-MS/MS analysis
# Assay type: ADME, organism-based
# condition_summary: in vivo
The following compounds are shown together with reported half-life values.
Report the value in h with no unit label.

structure_smiles_string | experimental_endpoint | reported
C[C@H]1NC(=O)[C@H](CCCCN)NC(=O)CCSCc2cccc(c2)CSC[C@@H](C(N)=O)NC(=O)[C@]2(C)CCCN2C(=O)[C@H](Cc2ccc(O)cc2)NC(=O)[C@H]([C@@H](C)O)NC(=O)[C@@H]2C[C@H](F)CN2C(=O)[C@H](Cc2c[nH]c3ccc(F)cc23)NC(=O)[C@H](Cc2c[nH]c3ccc(F)cc23)NC1=O | half-life | 1.6

QUERY: // half-life lookup, key: C[C@H]1NC(=O)[C@H](CCCCN)NC(=O)CCSCc2cccc(c2)CSCCNC(=O)[C@]2(C)CCCN2C(=O)[C@H](Cc2ccc(O)cc2)NC(=O)[C@H](Cc2cnc[nH]2)NC(=O)[C@H](CC(=O)O)NC(=O)[C@H](Cc2c[nH]c3ccc(F)cc23)NC(=O)[C@H](Cc2c[nH]c3ccc(F)cc23)NC1=O
RESULT: 0.78

----------
# run_description: Enzymatic stability assessed as porcine pepsin-mediated compound hydrolysis by measuring parent compound remaining at 100 uM incubated for 1 hr by LC-MS/MS analysis
# Type: ADME, Sus scrofa
# condition_summary: pig, read-out: Stabilty
Numbered stars: 1 amine (or outer) side, 2 acyl side, 3 side chain; on linkers, the order of the positions; unused ones are H or OH. Bridge positions count the residues as written; N and C are the ends. Square brackets hold non-standard residues; d marks the D form. Peptide text beside a SMILES is read from it. Trp(5-F) = N[C@@H](Cc1c[nH]c2ccc(F)cc12)C(=O)O; X3 = O=C(CCSCc1cc(F)cc(CSCCN[*:1])c1)[*:2]; mXylylene = c1cc(C[*:1])cc(C[*:2])c1; αMeP = C[C@@]1(C(=O)O)CCCN1; Mpa = O=C(O)CCS
The following molecules are shown together with reported remaining at 1 h, 100 µM values.
Report the value in % with no unit label.

molecule | remaining at 1 h, 100 µM / %
C[C@H]1NC(=O)[C@H](CCCCN)NC(=O)CCSCc2cccc(c2)CSCCNC(=O)[C@]2(C)CCCN2C(=O)[C@H](Cc2ccc(O)cc2)NC(=O)[C@H](Cc2cnc[nH]2)NC(=O)[C@H](CC(=O)O)NC(=O)[C@H](Cc2c[nH]c3ccc(F)cc23)NC(=O)[C@H](Cc2c[nH]c3ccc(F)cc23)NC1=O | 93.7
COc1ccc(C[C@@H]2NC(=O)[C@H]([C@@H](C)OC)NC(=O)[C@@H]3CCC(=O)NCc4cccc(c4)C[C@H](NC(=O)[C@@H](C)NC(=O)[C@H](C)NC(=O)CCSCc4cccc(c4)CSCCNC(=O)[C@]4(C)CCCN4C2=O)C(=O)N[C@@H](Cc2c[nH]c4ccc(F)cc24)C(=O)N3C)cc1 | 94.4
CO[C@H](C)[C@@H]1NC(=O)[C@@H]2CCCN2C(=O)[C@H](Cc2c[nH]c3ccc(F)cc23)NC(=O)[C@H](Cc2c[nH]c3ccc(F)cc23)NC(=O)CNC(=O)[C@H](CCCCN)NC(=O)CCSCc2cccc(c2)CSC[C@@H](C(N)=O)NC(=O)[C@]2(C)CCCN2C(=O)[C@H](Cc2ccc(O)cc2)NC1=O ([Mpa]KG[Trp(5-F)][Trp(5-F)]PT(Me)Y[αMeP]C-NH2; linker 1-10 via mXylylene) | 99.5
C[C@@H]1NC(=O)CCSCc2cccc(c2)CSC[C@@H](C(N)=O)NC(=O)[C@@H]2CCCN2C(=O)[C@H](Cc2ccc(O)cc2)NC(=O)[C@H](Cc2cnc[nH]2)NC(=O)[C@H](CC(=O)O)NC(=O)[C@H](Cc2c[nH]c3ccc(F)cc23)NC(=O)[C@H](Cc2c[nH]c3ccc(F)cc23)NC(=O)CNC1=O ([Mpa]AG[Trp(5-F)][Trp(5-F)]DHYPC-NH2; linker 1-10 via mXylylene) | 92.5
C[C@@H](O)[C@@H]1NC(=O)[C@@H]2CCCN2C(=O)[C@H](Cc2c[nH]c3ccc(F)cc23)NC(=O)[C@H](Cc2c[nH]c3ccc(F)cc23)NC(=O)CNC(=O)[C@H](CCCCN)NC(=O)CCSCc2cccc(c2)CSC[C@@H](C(N)=O)NC(=O)[C@]2(C)CCCN2C(=O)[C@H](Cc2ccc(O)cc2)NC1=O ([Mpa]KG[Trp(5-F)][Trp(5-F)]PTY[αMeP]C-NH2; linker 1-10 via mXylylene) | 95

Field: next molecule
QUERY: // remaining at 1 h, 100 µM lookup, key: C[C@H]1NC(=O)[C@H](CCCCN)NC(=O)CCSCc2cc(F)cc(c2)CSCCNC(=O)[C@]2(C)CCCN2C(=O)[C@H](Cc2ccc(O)cc2)NC(=O)[C@H](Cc2cnc[nH]2)NC(=O)[C@H](CC(=O)O)NC(=O)[C@H](Cc2c[nH]c3ccc(F)cc23)NC(=O)[C@H](Cc2c[nH]c3ccc(F)cc23)NC1=O (cyclo(DHY[αMeP][X3]K[dA][Trp(5-F)][Trp(5-F)]))
RESULT: 96.6

----------
The listing below reports Ki for molecules tested on Proprotein convertase subtilisin/kexin type 9 (Homo sapiens, UniProt Q8NBP7).
Sequence (Q8NBP7 31-152 limits assumed): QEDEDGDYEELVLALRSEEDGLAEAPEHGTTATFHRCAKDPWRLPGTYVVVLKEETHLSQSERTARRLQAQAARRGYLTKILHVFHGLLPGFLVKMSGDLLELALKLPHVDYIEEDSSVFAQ
Sequence (Q8NBP7 153-692 limits assumed): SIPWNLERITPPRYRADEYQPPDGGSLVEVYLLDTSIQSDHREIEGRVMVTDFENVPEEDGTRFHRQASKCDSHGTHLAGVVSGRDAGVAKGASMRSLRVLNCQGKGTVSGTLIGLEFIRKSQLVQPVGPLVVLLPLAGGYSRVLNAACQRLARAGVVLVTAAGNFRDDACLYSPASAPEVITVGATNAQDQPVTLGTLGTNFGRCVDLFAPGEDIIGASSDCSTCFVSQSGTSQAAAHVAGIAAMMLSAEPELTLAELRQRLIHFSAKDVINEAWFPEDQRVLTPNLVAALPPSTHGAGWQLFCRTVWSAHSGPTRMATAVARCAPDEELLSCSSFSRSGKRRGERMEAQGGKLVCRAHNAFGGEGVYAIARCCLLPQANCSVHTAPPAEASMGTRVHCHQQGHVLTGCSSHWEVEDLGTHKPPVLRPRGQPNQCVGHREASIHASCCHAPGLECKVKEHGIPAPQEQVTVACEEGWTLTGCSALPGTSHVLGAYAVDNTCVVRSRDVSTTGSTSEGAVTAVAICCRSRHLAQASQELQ
Numbered stars: 1 amine (or outer) side, 2 acyl side, 3 side chain; on linkers, the order of the positions; unused ones are H or OH. Bridge positions count the residues as written; N and C are the ends. Square brackets hold non-standard residues; d marks the D form. Peptide text beside a SMILES is read from it. Trp(5-F) = N[C@@H](Cc1c[nH]c2ccc(F)cc12)C(=O)O; Lys(Me3) = C[N+](C)(C)CCCC[C@H](N)C(=O)O; X1 = O=C(CCSCc1cccc(CSCCN[*:1])c1)[*:2]; mXylylene = c1cc(C[*:1])cc(C[*:2])c1; αMeP = C[C@@]1(C(=O)O)CCCN1; Mpa = O=C(O)CCS
Report the value in nM with no unit label.

molecule | assay_system | Ki (nM)
COc1ccc(C[C@@H]2NC(=O)[C@H](Cc3cnc[nH]3)NC(=O)[C@H](CC(=O)O)NC(=O)[C@H](Cc3c[nH]c4ccc(F)cc34)NC(=O)[C@H](Cc3c[nH]c4ccc(F)cc34)NC(=O)[C@@H](C)NC(=O)[C@H](CNC(=O)COCCOCCN)NC(=O)CCSCc3cccc(c3)CSCCNC(=O)[C@]3(C)CCCN3C2=O)cc1 | Proprotein convertase subtilisin/kexin type 9 (Homo sapiens, UniProt Q8NBP7) | 8.2

QUERY: // Ki lookup, key: COc1ccc(C[C@@H]2NC(=O)[C@H](Cc3cnc[nH]3)NC(=O)[C@H](CC(=O)O)NC(=O)[C@H](Cc3c[nH]c4ccc(F)cc34)NC(=O)[C@H](Cc3c[nH]c4ccc(F)cc34)NC(=O)[C@@H](C)NC(=O)[C@H](CCCC[N+](C)(C)C)NC(=O)CCSCc3cccc(c3)CSCCNC(=O)[C@]3(C)CCCN3C2=O)cc1 (cyclo(DHY(Me)[αMeP][X1][Lys(Me3)][dA][Trp(5-F)][Trp(5-F)]))
RESULT: 9.5

QUERY: // Ki lookup, key: C[C@@]12CCCN1C(=O)[C@H](Cc1ccc(O)cc1)NC(=O)[C@H](Cc1cnc[nH]1)NC(=O)[C@H](CC(=O)O)NC(=O)[C@H](Cc1c[nH]c3ccc(F)cc13)NC(=O)[C@H](Cc1c[nH]c3ccc(F)cc13)NC(=O)CNC(=O)[C@H](CCCCN)NC(=O)CCSCc1cccc(c1)CSC[C@@H](C(N)=O)NC2=O ([Mpa]KG[Trp(5-F)][Trp(5-F)]DHY[αMeP]C-NH2; linker 1-10 via mXylylene)
RESULT: 4
